Tested on: Rattus norvegicus
TEST_SUMMARY: Antihyperlipidemic activity in high-cholesterol diet-induced hypercholesterolemia Swiss albino rat model assessed as reduction in serum cholesterol level at 10 mg/kg/day, po administered via gavage simultaneously with diet cocktail for 14 days by UV-spectrophotometry relative to untreated control
Assay type: functional
COND: 336 h
// -1 strictly below 30% in inhibition in vivo at 10 mg/kg/day; 1 otherwise

[Q] Identify whether the reported inhibition in vivo at 10 mg/kg/day of the following molecule is 30% or greater: `O=C1c2cc(Cl)c(Cl)cc2C(=O)N1c1ncccn1`
[A] 1

[Q] Exam item: decide whether the reported inhibition in vivo at 10 mg/kg/day for `O=C1c2c(Br)c(Br)c(Br)c(Br)c2C(=O)N1CCc1ccccn1` is at least 30%.
[A] -1

[Q] Entry `O=C1c2c(Br)c(Br)c(Br)c(Br)c2C(=O)N1c1ncccn1` : is its inhibition in vivo at 10 mg/kg/day no less than 30%?
[A] -1

[Q] Threshold query (inhibition in vivo at 10 mg/kg/day >= 30%) on `O=C1c2c(Br)c(Br)c(Br)c(Br)c2C(=O)N1Cc1ccccn1`
[A] 1

[Q] Is it the case that COc1ccc(Cl)cc1C(=O)NCCc1ccc(S(=O)(=O)NC(=O)NC2CCCCC2)cc1 [GLYBURIDE] has inhibition in vivo at 10 mg/kg/day reaching or exceeding 30%?
[A] -1

[Q] Decide: is the reported value of inhibition in vivo at 10 mg/kg/day for `O=C1c2c(Cl)c(Cl)c(Cl)c(Cl)c2C(=O)N1c1ccccn1` equal to or greater than 30%?
[A] -1

[Q] Can `O=C1c2cc(Cl)c(Cl)cc2C(=O)N1c1ccccn1` be said to have inhibition in vivo at 10 mg/kg/day at or above 30%?
[A] -1

[Q] Exam item: decide whether the reported inhibition in vivo at 10 mg/kg/day for `O=C1c2c(Br)c(Br)c(Br)c(Br)c2C(=O)N1c1ccncc1` is at least 30%.
[A] -1

[Q] Please tell me: is the molecule `O=C1c2c(Br)c(Br)c(Br)c(Br)c2C(=O)N1CCN1CCOCC1` at or over 30% in terms of inhibition in vivo at 10 mg/kg/day?
[A] -1

[Q] Item `O=C1[C@@H]2[C@H](C(=O)N1c1ccncc1)C1(Cl)C(Cl)=C(Cl)C2(Cl)C1(Cl)Cl` with inhibition in vivo at 10 mg/kg/day of 30% or above?
[A] 1

[Q] Does the reported inhibition in vivo at 10 mg/kg/day for `O=C1c2c(Cl)c(Cl)c(Cl)c(Cl)c2C(=O)N1c1ncccn1` fall at or above the 30% mark?
[A] -1

[Q] Kindly determine if inhibition in vivo at 10 mg/kg/day recorded for `O=C1c2cc(Cl)c(Cl)cc2C(=O)N1CCc1ccccn1` is above or exactly 30%.
[A] 1

[Q] Say whether `O=C1c2c(Cl)c(Cl)c(Cl)c(Cl)c2C(=O)N1CCN1CCOCC1` shows inhibition in vivo at 10 mg/kg/day of 30% or more.
[A] 1

[Q] Answer whether inhibition in vivo at 10 mg/kg/day of `O=C1c2c(Cl)c(Cl)c(Cl)c(Cl)c2C(=O)N1Cc1ccccn1` is greater than or equal to 30%.
[A] 1

[Q] // inclusive: inhibition in vivo at 10 mg/kg/day at least 30%? input: `O=C1[C@@H]2[C@H](C(=O)N1c1ccccn1)C1(Cl)C(Cl)=C(Cl)C2(Cl)C1(Cl)Cl`
[A] 1

---

Tested on: Rattus norvegicus
TEST_SUMMARY: Antihyperlipidemic activity in high-cholesterol diet-induced hypercholesterolemia Swiss albino rat model assessed as reduction in serum cholesterol level at 10 mg/kg/day, po administered via gavage simultaneously with diet cocktail for 14 days by UV-spectrophotometry relative to untreated control
Format: functional
COND: 336 h
The label depends only on inhibition in vivo at 10 mg/kg/day: YES if it is at least 20%, NO if it is smaller.

[Q] Does `O=C1c2c(Cl)c(Cl)c(Cl)c(Cl)c2C(=O)N1CCc1ccccn1` have a reported inhibition in vivo at 10 mg/kg/day of at least 20%?
[A] YES

[Q] Reported inhibition in vivo at 10 mg/kg/day at or above 20%? `O=C1[C@@H]2[C@H](C(=O)N1Cc1ccccn1)C1(Cl)C(Cl)=C(Cl)C2(Cl)C1(Cl)Cl`
[A] NO

[Q] Hello, I need to know if `O=C1c2cc(Cl)c(Cl)cc2C(=O)N1c1ccncc1` has measured inhibition in vivo at 10 mg/kg/day not below 20%. Thanks!
[A] NO

[Q] Can `O=C1[C@@H]2[C@H](C(=O)N1CCc1ccccn1)C1(Cl)C(Cl)=C(Cl)C2(Cl)C1(Cl)Cl` be said to have inhibition in vivo at 10 mg/kg/day at or above 20%?
[A] YES

[Q] // inclusive: inhibition in vivo at 10 mg/kg/day at least 20%? input: `O=C1[C@@H]2[C@H](C(=O)N1CCN1CCOCC1)C1(Cl)C(Cl)=C(Cl)C2(Cl)C1(Cl)Cl`
[A] NO

[Q] hey, is inhibition in vivo at 10 mg/kg/day for this one >= 20%? `O=C1[C@@H]2[C@H](C(=O)N1c1ncccn1)C1(Cl)C(Cl)=C(Cl)C2(Cl)C1(Cl)Cl`
[A] YES

[Q] Is reported inhibition in vivo at 10 mg/kg/day greater than or equal to 20% here: `O=C1c2c(Cl)c(Cl)c(Cl)c(Cl)c2C(=O)N1c1ccncc1`
[A] YES

[Q] Textbook exercise: given the entry `O=C1c2cc(Cl)c(Cl)cc2C(=O)N1Cc1ccccn1` , state whether its inhibition in vivo at 10 mg/kg/day is greater than or equal to 20%.
[A] NO

[Q] # check: inhibition in vivo at 10 mg/kg/day of `O=C1c2cc(Cl)c(Cl)cc2C(=O)N1CCN1CCOCC1` is greater than or equal to 20%
[A] YES

[Q] Given `O=C1c2c(Br)c(Br)c(Br)c(Br)c2C(=O)N1c1ccccn1` , state whether its inhibition in vivo at 10 mg/kg/day is at least 20%.
[A] YES

---

System: Rattus norvegicus
TEST_SUMMARY: Antihyperlipidemic activity in streptozotocin-induced diabetic rat model assessed as serum triglyceride level at 10 mg/kg/day, po dosed via gavage for 14 days administered 3 days after streptozotocin challenge by UV-spectrophotometry
Type: functional
ASSAY_METRIC: Activity (mg/dL)
The reply should contain only the number, in mg/dL.

Simply: `O=C1c2c(Br)c(Br)c(Br)c(Br)c2C(=O)N1c1ccncc1` , Rattus norvegicus, Activity = 120

For the compound `O=C1[C@@H]2[C@H](C(=O)N1c1ccncc1)C1(Cl)C(Cl)=C(Cl)C2(Cl)C1(Cl)Cl` , the measured Activity on Rattus norvegicus was 77

Form field, Activity with Rattus norvegicus, item `O=C1[C@@H]2[C@H](C(=O)N1c1ncccn1)C1(Cl)C(Cl)=C(Cl)C2(Cl)C1(Cl)Cl` : 89.33

The reported Rattus norvegicus Activity of `O=C1c2c(Br)c(Br)c(Br)c(Br)c2C(=O)N1c1ccccn1` is 100.3

---

What LD50 was measured for each of the following?
TEST_SUMMARY: Toxicity in intra-gastrically dosed healthy rat administered as single dose
Type: organism-based
COND: in vivo, po

For `O=C1c2c(Br)c(Br)c(Br)c(Br)c2C(=O)N1Cc1ccccn1` the molecule record lists LD50 as 5010 mg/kg

GET /value?item= `O=C1c2cc(Cl)c(Cl)cc2C(=O)N1c1ncccn1` &field=LD50 returns 4240 mg/kg

Input `O=C1c2cc(Cl)c(Cl)cc2C(=O)N1CCc1ccccn1` . Output LD50: 5260 mg/kg

---

Hi there, I'd appreciate the recorded Activity for every entry that follows.
Test system: Rattus norvegicus
TEST_SUMMARY: Antihyperlipidemic activity in streptozotocin-induced diabetic rat model assessed as serum triglyceride level at 10 mg/kg/day, po dosed via gavage for 14 days administered 3 days after streptozotocin challenge by UV-spectrophotometry
Type: functional
Write the value in mg/dL as a bare number.

Sure, the documented Activity for `O=C1c2cc(Cl)c(Cl)cc2C(=O)N1c1ncccn1` is 70.66

For this molecule ( `O=C1c2c(Br)c(Br)c(Br)c(Br)c2C(=O)N1Cc1ccccn1` ), measured Activity is 82.66

According to the records, this molecule `O=C1c2c(Cl)c(Cl)c(Cl)c(Cl)c2C(=O)N1c1ncccn1` displays Activity of 123

// Activity value for `O=C1c2c(Cl)c(Cl)c(Cl)c(Cl)c2C(=O)N1CCc1ccccn1` : 80

Noted for `O=C1c2cc(Cl)c(Cl)cc2C(=O)N1CCc1ccccn1` : its Activity reads 71.6

The recorded Activity for `O=C1[C@@H]2[C@H](C(=O)N1CCN1CCOCC1)C1(Cl)C(Cl)=C(Cl)C2(Cl)C1(Cl)Cl` is 91.33

For reference, reported Activity for `O=C1c2c(Br)c(Br)c(Br)c(Br)c2C(=O)N1CCc1ccccn1` stands at 91.33

GET /value?item= COc1ccc(Cl)cc1C(=O)NCCc1ccc(S(=O)(=O)NC(=O)NC2CCCCC2)cc1 [GLYBURIDE] &field=Activity returns 87.6

According to the records, this molecule `O=C1[C@@H]2[C@H](C(=O)N1CCc1ccccn1)C1(Cl)C(Cl)=C(Cl)C2(Cl)C1(Cl)Cl` displays Activity of 71

Looking up `O=C1c2cc(Cl)c(Cl)cc2C(=O)N1CCN1CCOCC1` , I found its Activity recorded as 97.66

Field Activity (entry `O=C1c2c(Cl)c(Cl)c(Cl)c(Cl)c2C(=O)N1CCN1CCOCC1` ) reads 100.3

Short answer for `O=C1c2cc(Cl)c(Cl)cc2C(=O)N1Cc1ccccn1` : Activity was 93

Briefly, Activity measured for `O=C1c2c(Cl)c(Cl)c(Cl)c(Cl)c2C(=O)N1c1ccccn1` : 120

Data point: `O=C1c2cc(Cl)c(Cl)cc2C(=O)N1c1ccccn1` ; Activity = 90.5

Entry `O=C1[C@@H]2[C@H](C(=O)N1c1ccccn1)C1(Cl)C(Cl)=C(Cl)C2(Cl)C1(Cl)Cl` — recorded Activity = 94.33

Recorded result, `O=C1c2c(Br)c(Br)c(Br)c(Br)c2C(=O)N1CCN1CCOCC1` , Activity: 80

Entry `O=C1c2c(Br)c(Br)c(Br)c(Br)c2C(=O)N1c1ncccn1` ; Activity = 110.6

# molecule `O=C1[C@@H]2[C@H](C(=O)N1Cc1ccccn1)C1(Cl)C(Cl)=C(Cl)C2(Cl)C1(Cl)Cl` ; its Activity = 123

Value of Activity reported for the molecule `O=C1c2cc(Cl)c(Cl)cc2C(=O)N1c1ccncc1` is 112

Lab note: measured Activity of `O=C1c2c(Cl)c(Cl)c(Cl)c(Cl)c2C(=O)N1c1ccncc1` was 110.6

Activity for `O=C1c2c(Cl)c(Cl)c(Cl)c(Cl)c2C(=O)N1Cc1ccccn1` is 82.66
